Measured values drawn from paper PMC10330345 for this set.

assayed_target: the molecule itself
assay_summary: SEC
Listed below: stoichiometry N values for each entry.
I only need the number, thanks.

Use the examples below as a reference point.
| protein | stoichiometry N |
| --- | --- |
| BTN2A1 (271–527) L318G (domain or fragment, human, UniProt Q7KYR7 271-527, looked up) KLQKEKKILSGEKEFERETREIALKELEKERVQKEEELQVKEKLQEEGRWRRTFLHAVDVVLDPDTAHPDLFLSEDRRSVRRCPFRHLGESVPDNPERFDSQPCVLGRESFASGKHYWEVEVENVIEWTVGVCRDSVERKGEVLLIPQNGFWTLEMHKGQYRAVSSPDRILPLKESLCRVGVFLDYEAGDVSFYNMRDRSHIYTCPRSAFSVPVRPFFRLGCEDSPIFICPALTGANGVTVPEEGLTLHRVGTHQSL | 2 |
| BTN2A1 (271–527) wild type (domain or fragment, human, UniProt Q7KYR7 271-527, looked up) KLQKEKKILSGEKEFERETREIALKELEKERVQKEEELQVKEKLQEELRWRRTFLHAVDVVLDPDTAHPDLFLSEDRRSVRRCPFRHLGESVPDNPERFDSQPCVLGRESFASGKHYWEVEVENVIEWTVGVCRDSVERKGEVLLIPQNGFWTLEMHKGQYRAVSSPDRILPLKESLCRVGVFLDYEAGDVSFYNMRDRSHIYTCPRSAFSVPVRPFFRLGCEDSPIFICPALTGANGVTVPEEGLTLHRVGTHQSL | 2 |

Proceeding to the next protein to report its stoichiometry N.
# lookup: stoichiometry N of BTN2A1 (271–527) L318GW320A (domain or fragment, human, UniProt Q7KYR7 271-527, looked up) KLQKEKKILSGEKEFERETREIALKELEKERVQKEEELQVKEKLQEEGRARRTFLHAVDVVLDPDTAHPDLFLSEDRRSVRRCPFRHLGESVPDNPERFDSQPCVLGRESFASGKHYWEVEVENVIEWTVGVCRDSVERKGEVLLIPQNGFWTLEMHKGQYRAVSSPDRILPLKESLCRVGVFLDYEAGDVSFYNMRDRSHIYTCPRSAFSVPVRPFFRLGCEDSPIFICPALTGANGVTVPEEGLTLHRVGTHQSL
2
